# Tested on: male and female Sprague–Dawley rats
# Assay comment: 90-day subchronic oral gavage toxicity study
# Assay type: in vivo, rat
# Parameters: key: NR: no response, no statistically significant dose-dependent changes
# Condition parameters: female
Value kind: NOEL, absolute kidney weight increase

{"columns": ["Compound", "Assay value"],
 "data": [
  ["O=C(O)C(F)(Cl)C(F)(F)F (stereo not shown)", "NR"],
  ["FC(F)(F)C(F)(F)C(F)(F)C(F)(F)CCI [PFHI, 1H,1H,2H,2H-Perfluorohexyl iodide]", "NR"],
  ["CC(=O)C(F)(F)C(F)(F)C(F)(F)F", "NR"],
  ["C=CC(=O)OCC(F)(F)C(F)(F)C(F)(F)C(F)(F)C(F)(F)C(F)(F)C(F)(F)C(F)F [PFNAC, 1H,1H,9H-Perfluorononyl acrylate]", "3 mg/kg-day"]
]}

====

The compounds listed here are annotated with their LOEL, relative liver weight increase.
# Tested on: male and female Sprague–Dawley rats
# Assay comment: 90-day subchronic oral gavage toxicity study
# Type: in vivo, rat
# Condition parameters: male

{"columns": ["Compound", "Unit text", "LOEL, relative liver weight increase"],
 "data": [
  ["O=C(O)C(F)(Cl)C(F)(F)F (stereo not shown)", "mg/kg-day", 3.8],
  ["FC(F)(F)C(F)(F)C(F)(F)C(F)(F)CCI [PFHI, 1H,1H,2H,2H-Perfluorohexyl iodide]", "mg/kg-day", 25],
  ["C=CC(=O)OCC(F)(F)C(F)(F)C(F)(F)C(F)(F)C(F)(F)C(F)(F)C(F)(F)C(F)F [PFNAC, 1H,1H,9H-Perfluorononyl acrylate]", "mg/kg-day", 0.3]
]}

====

# Assay comment: Parent chemical in rat plasma, 90-day study
# Type: in vivo
# Condition parameters: Sprague-Dawley, rat, plasma, oral; female, Day 91, 25 mg/kg-day

{"columns": ["Compound", "concentration at 91 day"],
 "data": [
  ["O=C(O)C(F)(Cl)C(F)(F)F (stereo not shown)", "51 µg/mL"]
]}

====

# Tested on: male and female Sprague–Dawley rats
# Assay comment: 90-day subchronic oral gavage toxicity study
# Type: in vivo, rat
# Condition parameters: female

{"columns": ["Compound", "LOEL, absolute liver weight increase / mg/kg-day"],
 "data": [
  ["C=CC(=O)OCC(F)(F)C(F)(F)C(F)(F)C(F)(F)C(F)(F)C(F)(F)C(F)(F)C(F)F [PFNAC, 1H,1H,9H-Perfluorononyl acrylate]", 30],
  ["O=C(O)C(F)(Cl)C(F)(F)F (stereo not shown) [CTFPA]", 25],
  ["FC(F)(F)C(F)(F)C(F)(F)C(F)(F)CCI [PFHI, 1H,1H,2H,2H-Perfluorohexyl iodide]", 200]
]}

====

# Assay comment: Parent chemical in rat plasma, 90-day study
# Assay type: in vivo
# Condition parameters: Sprague-Dawley, rat, plasma, oral; male, Day 91, 7.5 mg/kg-day
Value kind: concentration at 91 day (ng/mL)

{"columns": ["Molecule", "Value kind", "Assay value"],
 "data": [
  ["O=C(O)C(F)(Cl)C(F)(F)F (stereo not shown)", "concentration at 91 day", 43300]
]}

====

# System: male and female Sprague–Dawley rats
# Assay comment: 90-day subchronic oral gavage toxicity study
# Type: in vivo, rat
# Condition parameters: 90-day, both sexes, all doses
# Protocol: Subchronic (90-day) studies were performed in accordance with current U.S. EPA’s Toxic Substances Control Act Good Laboratory Practice (GLP) Standards, with the following two general exceptions to the GLP guidelines: Analysis of the dose formulations was conducted according to RTI-approved Standard Operating Procedures, and corn oil (the vehicle) was not characterized (certificate of analysis from the vendor is available in the appendices to the final reports). […]

{"columns": ["Molecule", "Ophthalmology"],
 "data": [
  ["CC(=O)C(F)(F)C(F)(F)C(F)(F)F [MHFPK, Methyl heptafluoropropyl ketone]", "No ocular lesions"],
  ["O=C(O)C(F)(Cl)C(F)(F)F (stereo not shown) [CTFPA]", "No ocular lesions"],
  ["C=CC(=O)OCC(F)(F)C(F)(F)C(F)(F)C(F)(F)C(F)(F)C(F)(F)C(F)(F)C(F)F [PFNAC, 1H,1H,9H-Perfluorononyl acrylate]", "No ocular lesions"],
  ["FC(F)(F)C(F)(F)C(F)(F)C(F)(F)CCI [PFHI, 1H,1H,2H,2H-Perfluorohexyl iodide]", "No ocular lesions"]
]}
